Conditions: 323.15 K; 45000 kPa; Liquid
Some molecules, each annotated with its measured mass density.
reported_metric: mass density (kg/m3)

| molecule | experimental_value |
| --- | --- |
| CCCCCCCCCCCCCC[P+](CCCCCC)(CCCCCC)CCCCCC.O=S(=O)([N-]S(=O)(=O)C(F)(F)F)C(F)(F)F | 1075.1 |
| CCCCCCCCCCCCCC[P+](CCCCCC)(CCCCCC)CCCCCC.CS(=O)(=O)[O-] [trihexyltetradecylphosphonium methanesulfonate] | 938.1 |
| CCCCCCCCCCCCCC[P+](CCCCCC)(CCCCCC)CCCCCC.[Cl-] [trihexyl(tetradecyl)phosphonium chloride] | 897 |
| CCCCCCCCCCCCCC[P+](CCCCCC)(CCCCCC)CCCCCC.N#C[N-]C#N [tetradecyl(trihexyl)phosphonium dicyanamide] | 905.6 |
| CCCCCCCCCCCCCC[P+](CCCCCC)(CCCCCC)CCCCCC.[Br-] [tetradecyltrihexylphosphonium bromide] | 962.7 |
